Source of measurements: ChEMBL document CHEMBL1131855

Here we list molecules with their recorded IC50 when tested on Proto-oncogene tyrosine-protein kinase Src (Homo sapiens, UniProt P12931).
Sequence (P12931 2-536 limits assumed): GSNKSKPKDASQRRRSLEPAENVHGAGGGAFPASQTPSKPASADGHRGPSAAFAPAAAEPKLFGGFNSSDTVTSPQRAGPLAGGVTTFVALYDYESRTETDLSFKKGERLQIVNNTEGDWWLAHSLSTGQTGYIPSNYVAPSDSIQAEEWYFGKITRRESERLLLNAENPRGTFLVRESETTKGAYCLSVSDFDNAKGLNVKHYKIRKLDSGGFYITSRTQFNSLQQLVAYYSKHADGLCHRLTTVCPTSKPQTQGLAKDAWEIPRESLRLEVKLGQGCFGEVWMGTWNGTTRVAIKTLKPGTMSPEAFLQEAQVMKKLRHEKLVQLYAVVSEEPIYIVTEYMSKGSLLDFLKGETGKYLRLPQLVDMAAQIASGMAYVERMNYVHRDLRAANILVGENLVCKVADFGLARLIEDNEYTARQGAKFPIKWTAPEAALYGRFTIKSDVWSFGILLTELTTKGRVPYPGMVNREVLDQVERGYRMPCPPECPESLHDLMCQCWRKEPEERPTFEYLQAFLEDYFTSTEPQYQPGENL
# unit: µM | format: bare number

{"TEST SMILES": "CC(=O)N[C@@H](Cc1ccc(OP(=O)(O)O)cc1)C(=O)N[C@@H](C)c1nc(Cc2ccc(C(F)(F)F)cc2)no1", "TEST VALUE": 72}
{"TEST SMILES": "C[C@H](NC(=O)CCc1ccc(OP(=O)(O)O)cc1)c1nc(Cc2ccc(Cl)c(Cl)c2)no1", "TEST VALUE": 459}

Report IC50 for C[C@H](NC(=O)[C@@H](CC(=O)O)Cc1ccc(OP(=O)(O)O)cc1)c1nc(Cc2ccc(Cl)c(Cl)c2)no1 tested on Proto-oncogene tyrosine-protein kinase Src (Homo sapiens, UniProt P12931).
53
